Items are presented alongside their recorded R3 EC50, nM (cAMP SPA).
# Target or system: T1, PACAP-R3 (human, UniProt P41587 24-438)
# T1 sequence (looked up): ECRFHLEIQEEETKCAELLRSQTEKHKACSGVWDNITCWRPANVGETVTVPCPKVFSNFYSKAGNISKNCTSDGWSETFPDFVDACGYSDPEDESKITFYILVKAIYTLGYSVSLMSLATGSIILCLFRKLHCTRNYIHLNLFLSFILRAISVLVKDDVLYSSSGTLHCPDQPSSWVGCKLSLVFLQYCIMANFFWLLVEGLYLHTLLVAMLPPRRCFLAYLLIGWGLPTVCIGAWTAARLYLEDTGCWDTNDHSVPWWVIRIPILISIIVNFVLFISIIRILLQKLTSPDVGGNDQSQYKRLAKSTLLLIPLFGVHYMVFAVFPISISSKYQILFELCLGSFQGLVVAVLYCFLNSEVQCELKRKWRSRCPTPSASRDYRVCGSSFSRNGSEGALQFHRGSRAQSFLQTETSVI
# Protocol: cell-based or functional assay
No end group written: not given here.

Binder: HSDGIFTDSYSRYREQMAVKKYLAAVL-NH2 [PAC15]
R3 EC50, nM (cAMP SPA): 0.2 nM
//
Binder: HSDGIFTKSYSRYRKQMAVKKYLAAVL-NH2 [PAC8]
R3 EC50, nM (cAMP SPA): 47 nM
//
Binder: HSDAVFTDNYTRLRKQVAAKKYLQSIKNKRYSWCEPGWCR [R3P172]
R3 EC50, nM (cAMP SPA): 2.6 nM
//
Binder: HSDAVFTDNYTRLRKQMAKKKYLNSIKNRI [rR3P176]
R3 EC50, nM (cAMP SPA): 2 nM
//
Binder: HSDAVFTDNYTRLRKQMARKKYLNSIQNRI [rR3P187]
R3 EC50, nM (cAMP SPA): 1.6 nM
//
Binder: HSDAVFTDNYTRLRKQMAKKKYLNSIRNRI [rR3P191]
R3 EC50, nM (cAMP SPA): 2.7 nM
